Recorded OD450, one value per entry.
# target_under_test: T1, human MSLN-R2-his protein (human, UniProt Q13421 391-486)
# T1 construct: also called human MSLN-R2 protein; hMSLN-R2-his; not shown: His tag
# procedure_summary: ELISA, coated antigen; antibody 0.1 nM

# binder, OD450 [OD450]
records = [
    ("S009-F4-94.15 (antibody, human IgG1, kappa, V domains shown, Human-murine chimeric antibody, human IgG1/kappa constant regions) VH: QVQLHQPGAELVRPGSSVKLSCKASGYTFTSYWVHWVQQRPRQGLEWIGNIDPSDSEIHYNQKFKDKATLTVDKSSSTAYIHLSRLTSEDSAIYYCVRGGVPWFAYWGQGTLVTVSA VL: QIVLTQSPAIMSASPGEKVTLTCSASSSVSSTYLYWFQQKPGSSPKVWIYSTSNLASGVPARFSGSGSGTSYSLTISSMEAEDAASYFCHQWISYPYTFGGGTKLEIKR", 0.05),
    ("Tab106 (YP218, hIgG1) (antibody, V domains shown, Control antibody: YP218 VH and VL recombined into human IgG1 CH and CL expression vectors; also called YP218 human IgG1 antibody) VH: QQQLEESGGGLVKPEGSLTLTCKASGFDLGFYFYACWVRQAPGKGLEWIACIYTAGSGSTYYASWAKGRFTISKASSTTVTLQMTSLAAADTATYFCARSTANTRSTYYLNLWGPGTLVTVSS VL: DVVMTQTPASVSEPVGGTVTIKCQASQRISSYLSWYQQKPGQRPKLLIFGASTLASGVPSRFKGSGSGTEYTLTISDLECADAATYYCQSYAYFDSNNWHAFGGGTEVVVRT", 0.08),
    ("S009-F6-76.1 (antibody, human IgG1, kappa, V domains shown, Human-murine chimeric antibody, human IgG1/kappa constant regions) VH: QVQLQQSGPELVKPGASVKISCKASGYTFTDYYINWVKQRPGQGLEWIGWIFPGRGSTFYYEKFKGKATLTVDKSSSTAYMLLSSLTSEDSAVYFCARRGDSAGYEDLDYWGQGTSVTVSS VL: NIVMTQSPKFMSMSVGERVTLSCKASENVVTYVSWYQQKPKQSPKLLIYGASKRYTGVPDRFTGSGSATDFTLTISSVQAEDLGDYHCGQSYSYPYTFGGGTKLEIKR", 0.07),
    ("S009-F5-9.16 (antibody, human IgG1, kappa, V domains shown, Human-murine chimeric antibody, human IgG1/kappa constant regions) VH: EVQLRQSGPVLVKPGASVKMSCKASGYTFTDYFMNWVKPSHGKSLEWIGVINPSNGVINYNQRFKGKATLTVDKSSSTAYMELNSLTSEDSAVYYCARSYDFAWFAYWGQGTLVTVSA VL: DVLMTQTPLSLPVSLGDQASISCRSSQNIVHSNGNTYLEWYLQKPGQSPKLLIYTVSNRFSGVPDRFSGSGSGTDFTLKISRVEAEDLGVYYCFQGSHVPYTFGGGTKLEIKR", 0.04),
]
